Origin of measurements: paper PMC9229493

experiment: Antioxidant activity assay (ABTS working solution, 734 nm)
Some compounds, each annotated with its measured pIC50.
Note: pIC50 values are expressed as the negative base-10 logarithm of concentration in M.

- compound: "Cc1c(O)cc2cc(CC(C)O)oc(=O)c2c1O (centres unmarked) [Compound 22]"
  pIC50: 5.05
- compound: "COc1c(O)ccc2c1C(=O)O[C@H](CCCC(C)=O)C2 [Compound 18, peniciisocoumarin D]"
  pIC50: 3.80
- compound: "COc1ccc(O)c2c1C(=O)O[C@H](CCCC(C)=O)C2 [Compound 17, penicimarin H]"
  pIC50: 3.92
- compound: "COc1ccc2c(c1O)C(=O)O[C@H](CCC[C@@H](C)O)C2 [Compound 2, Talaromarin B]"
  pIC50: 1.55
- compound: "Cc1c(C)c2c(c(C)c1O)CCC(C)(C(=O)O)O2 (centres unmarked) [Trolox, trolox, reference compound]"
  pIC50: 3.54

pIC50 in this record for O=C1O[C@H](CCCO)Cc2cccc(O)c21 [Compound 7] : 3.77

pIC50 in this record for CC(=O)OCCC[C@@H]1Cc2cccc(O)c2C(=O)O1 [Compound 19, peniciisocoumarin G] : 3.82

pIC50 in this record for COc1ccc2c(c1O)C(=O)O[C@H](CCCO)C2 [Compound 8, peniciisocoumarin C] : 3.89

====

biological target: α-glucosidase; experiment: Inhibitory activity against α-glucosidase (PNPG, 405 nm); conditions: read-out: α-glucosidase inhibitory activity IC50; 37 °C, pH 6.8, PNPG substrate
Some compounds, each annotated with its measured IC50.
The reply should contain only the number, in µM.

- compound: "COc1c(C)c(O)cc2cc(C[C@H](C)O)oc(=O)c12 [Compound 23, pestalotiorin]"
  IC50 (µM): 540
- compound: "COc1c(O)ccc2c1C(=O)O[C@H](CCCC(C)=O)C2 [Compound 18, peniciisocoumarin D]"
  IC50 (µM): 380
- compound: "CC(O)CCCC1Cc2c(ccc(O)c2O)C(=O)O1 (stereo not shown) [Compound 10]"
  IC50 (µM): 100

# next compound below
IC50 in this record for COC(=O)CC[C@@H]1Cc2ccc(OC)c(O)c2C(=O)O1 [Compound 21, penicimarin N] : 620
